Value source: patent US7745450B2

molecules and their reported IC50
System: Cytokinin-dependent tobacco callus Nicotiana tabacum L. cv. Wisconsins 38
Test: Tobacco callus bioassay for cytotoxicity (herbicidal activity)
Assay type: cell-based
Conditions: Nicotiana tabacum, 672 h, read-out: 10^−6 M BAP IC50, 10^−6 M 6-benzylaminopurine, four weeks
Experimental: The novel compounds have also been tested in tobacco callus bioassay for cytotoxicity (herbicidal activity) and induction of cell death. The compounds to be tested were dissolved in dimethylsulfoxide (DMSO) and the solution brought up to 10^−3 M with distilled water. […] Cytokinin-dependent tobacco callus Nicotiana tabacum L. cv. […] Inhibitory growth activity was determined from the increase in fresh callus weight after four weeks of cultivation. […]

{"mol_smiles": "CC(=O)Oc1cccc(CNc2nc(N[C@@H](CO)C(C)C)nc3c(C(C)C)n[nH]c23)c1", "target_entity": "Cytokinin-dependent tobacco callus Nicotiana tabacum L. cv. Wisconsins 38", "IC50": "8.5 µM"}
{"mol_smiles": "CC(C)c1n[nH]c2c(Nc3ccc(Cl)c(C(=O)O)c3)nc(N[C@@H](CO)C(C)C)nc12", "target_entity": "Cytokinin-dependent tobacco callus Nicotiana tabacum L. cv. Wisconsins 38", "IC50": "9.6 µM"}
{"mol_smiles": "CC(C)c1n[nH]c2c(NCc3cccc(Cl)c3O)nc(N[C@@H](CO)C(C)C)nc12", "target_entity": "Cytokinin-dependent tobacco callus Nicotiana tabacum L. cv. Wisconsins 38", "IC50": "9.4 µM"}

----------
Tested on: CEM (human lymphoblastoid leukemia)
Assay: In vitro cytotoxic activity, Calcein AM
Type: cell-based
Conditions: Homo sapiens, 72 h, three days

{"molecule": "CC(C)c1n[nH]c2c(Nc3ccc(Br)cc3)nc(N[C@@H](CO)C(C)C)nc12", "value_unit": "µM", "GI50": 5.8}
{"molecule": "COc1cccc(CNc2nc(N[C@@H](CO)C(C)C)nc3c(C(C)C)n[nH]c23)c1O", "value_unit": "µM", "GI50": 9.7}
{"molecule": "CC[C@H](CO)Nc1nc(N(C)Cc2ccc(O)c(O)c2)c2[nH]nc(C(C)C)c2n1", "value_unit": "µM", "GI50": 11.6}
{"molecule": "CC(C)c1n[nH]c2c(NCc3c(O)cc(Cl)cc3O)nc(N[C@@H](CO)C(C)C)nc12", "value_unit": "µM", "GI50": 0.4}
{"molecule": "COc1cc(O)c(CNc2nc(N[C@@H](CO)C(C)C)nc3c(C(C)C)n[nH]c23)cc1O", "value_unit": "µM", "GI50": 1.7}
{"molecule": "Cc1n[nH]c2c(NCc3cccc(O)c3)nc(NCCO)nc12", "value_unit": "µM", "GI50": 9.4}
{"molecule": "CC(C)c1n[nH]c2c(Nc3ccc(Cl)cc3)nc(N[C@@H](CO)C(C)C)nc12", "value_unit": "µM", "GI50": 4.1}
{"molecule": "CC(=O)c1ccccc1CNc1nc(NCCO)nc2c(C)n[nH]c12", "value_unit": "µM", "GI50": 10.8}
{"molecule": "CC[C@H](CO)Nc1nc(NCc2cccc(OC(C)=O)c2)c2[nH]nc(C(C)C)c2n1", "value_unit": "µM", "GI50": 18.5}
{"molecule": "Cc1n[nH]c2c(NC(CO)c3ccccc3)nc(NCCO)nc12 (racemic)", "value_unit": "µM", "GI50": 8.9}
{"molecule": "Cc1n[nH]c2c(NCc3c(N)cccc3Cl)nc(NCCO)nc12", "value_unit": "µM", "GI50": 5.8}
{"molecule": "CC(C)c1n[nH]c2c(NCc3ccc(Cl)c(N)c3)nc(N[C@@H](CO)C(C)C)nc12", "value_unit": "µM", "GI50": 2.6}
{"molecule": "Cc1n[nH]c2c(NCc3ccccc3O)nc(NCCO)nc12", "value_unit": "µM", "GI50": 5.6}
{"molecule": "Cc1n[nH]c2c(NCc3ccccc3)nc(NCCCN)nc12", "value_unit": "µM", "GI50": 32}
{"molecule": "CC[C@H](CO)Nc1nc(NCc2ccc(Cl)c(N)c2N)c2[nH]nc(C(C)C)c2n1", "value_unit": "µM", "GI50": 4.6}
{"molecule": "CC[C@H](CO)Nc1nc(NCc2ccccc2OC(C)=O)c2[nH]nc(C(C)C)c2n1", "value_unit": "µM", "GI50": 13.8}
{"molecule": "CC(C)c1n[nH]c2c(NCc3ccccc3)nc(N(CCO)CCO)nc12", "value_unit": "µM", "GI50": 25}

----------
Tested on: normal human lymphocytes
Experiment: Immunosuppressive activity, 3H-thymidine incorporation in concanavalin A activated lymphocytes
Format: cell-based
Details: Lymphocyte, 72 hours, [3H]-TdR, read-out: Human lymphocytes ED50
pEC50: −log10 of the molar value.
compounds and their reported pEC50

{"compound": "CC(C)c1n[nH]c2c(NCc3ccccc3)nc(N(CCO)CCO)nc12", "pEC50": 4.80}
{"compound": "CC(C)c1n[nH]c2c(NCc3ccccc3)nc(NCCCN)nc12", "pEC50": 5.01}
{"compound": "CC(C)c1n[nH]c2c(Nc3cccc(Cl)c3)nc(N(CCO)CCO)nc12", "pEC50": 5.15}
{"compound": "Cc1n[nH]c2c(NCc3ccccc3)nc(NC3CCC(N)CC3)nc12 (centres unmarked)", "pEC50": 5.82}
{"compound": "Cc1n[nH]c2c(NCc3ccccc3)nc(N(CCO)CCO)nc12", "pEC50": 4.60}

----------
Quick note: these are IC50 numbers for system: MMK1 protein kinase (Vicia faba, UniProt A0AAV1B7B8)
Sequence (A0AAV1B7B8 1-394): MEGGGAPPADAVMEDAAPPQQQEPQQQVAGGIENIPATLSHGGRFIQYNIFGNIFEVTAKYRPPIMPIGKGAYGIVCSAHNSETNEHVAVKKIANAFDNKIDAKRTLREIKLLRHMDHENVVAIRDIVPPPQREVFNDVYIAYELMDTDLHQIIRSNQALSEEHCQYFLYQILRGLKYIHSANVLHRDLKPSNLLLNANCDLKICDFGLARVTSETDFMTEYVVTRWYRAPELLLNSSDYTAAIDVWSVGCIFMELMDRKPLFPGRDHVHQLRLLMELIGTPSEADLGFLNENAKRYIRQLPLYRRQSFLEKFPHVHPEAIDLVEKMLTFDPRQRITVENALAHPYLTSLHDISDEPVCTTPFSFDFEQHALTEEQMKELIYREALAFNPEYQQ
outcome_measure: IC50

{"compound": "Cc1n[nH]c2c(N(C)Cc3ccc(O)c(O)c3)nc(NCCO)nc12", "target_entity": "MMK1 protein kinase (Vicia faba, UniProt A0AAV1B7B8)", "result": "1950 nM"}
{"compound": "CC(=O)Oc1ccccc1CNc1nc(N[C@@H](CO)C(C)C)nc2c(C(C)C)n[nH]c12", "target_entity": "MMK1 protein kinase (Vicia faba, UniProt A0AAV1B7B8)", "result": "12 nM"}
{"compound": "Cc1n[nH]c2c(NCc3ccc(Cl)c(N)c3N)nc(NCCO)nc12", "target_entity": "MMK1 protein kinase (Vicia faba, UniProt A0AAV1B7B8)", "result": "2800 nM"}
{"compound": "CC(C)c1n[nH]c2c(NC(CO)c3ccccc3)nc(NC(CO)C(C)C)nc12 (stereo not shown)", "target_entity": "MMK1 protein kinase (Vicia faba, UniProt A0AAV1B7B8)", "result": "150 nM"}
{"compound": "COc1cccc(CNc2nc(N[C@@H](CO)C(C)C)nc3c(C(C)C)n[nH]c23)c1O", "target_entity": "MMK1 protein kinase (Vicia faba, UniProt A0AAV1B7B8)", "result": "15 nM"}
{"compound": "CC(C)c1n[nH]c2c(NCc3ccccc3)nc(N(CCO)CCO)nc12", "target_entity": "MMK1 protein kinase (Vicia faba, UniProt A0AAV1B7B8)", "result": "1100 nM"}
{"compound": "CCC(CO)Nc1nc(NC(CO)c2ccccc2)c2[nH]nc(C(C)C)c2n1 (stereo not shown)", "target_entity": "MMK1 protein kinase (Vicia faba, UniProt A0AAV1B7B8)", "result": "210 nM"}

----------
Molecular target: IκB-α kinase
Experiment: IκB-α kinase inhibition, in vitro kinase assay
pIC50: −log10 of the molar value.
Label rule, in plain words: pIC50 of 8 and up is Met, under 8 is Not met.

{"compound": "CC(C)c1n[nH]c2c(Nc3ccc(Cl)c(N)c3)nc(N[C@@H](CO)C(C)C)nc12", "label_value": "Met"}
{"compound": "Cc1n[nH]c2c(NCc3cccc(Cl)c3O)nc(NCCO)nc12", "label_value": "Not met"}
{"compound": "CC(C)c1n[nH]c2c(Nc3ccc(Br)cc3)nc(N[C@@H](CO)C(C)C)nc12", "label_value": "Met"}
{"compound": "CC(=O)Oc1cccc(CNc2nc(NCCO)nc3c(C)n[nH]c23)c1", "label_value": "Not met"}
{"compound": "CC(C)c1n[nH]c2c(NC(CO)c3ccccc3)nc(N[C@@H](CO)C(C)C)nc12 (mixture of isomers)", "label_value": "Not met"}
{"compound": "COc1cc(O)c(CNc2nc(N[C@@H](CO)C(C)C)nc3c(C(C)C)n[nH]c23)cc1O", "label_value": "Met"}

----------
compounds and their reported pEC50
Test system: normal human lymphocytes
Test: Immunosuppressive activity, 3H-thymidine incorporation in concanavalin A activated lymphocytes
Type: cell-based
Conditions: Lymphocyte, 72 hours, [3H]-TdR, read-out: Human lymphocytes ED50
pEC50: −log10 of the molar value.
outcome_measure: pEC50

{"compound": "CC[C@H](CO)Nc1nc(NCc2ccccc2)c2[nH]nc(C)c2n1", "target_entity": "normal human lymphocytes", "quantitative_readout": 5.02}
{"compound": "CC(C)c1n[nH]c2c(Nc3cccc(Cl)c3)nc(N[C@@H](CO)C(C)C)nc12", "target_entity": "normal human lymphocytes", "quantitative_readout": 5.49}
{"compound": "CC(C)c1n[nH]c2c(NCc3ccccc3)nc(NC3CCCCC3N)nc12 (stereo not drawn)", "target_entity": "normal human lymphocytes", "quantitative_readout": 6.10}
